Tested on: SUIT-2 (Pancreatic Carcinoma);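 note: after 72 h of two-drug dosing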
TEST METHOD NOTES: Bliss excess, mean over the matrix (fraction); higher = more synergy
VALUE TYPE: Bliss excess
Form rule: numeric answer, no unit written next to it.

Worked cases, Bliss excess given:
[[record]]
molecule = "CN(CCO)CC[C@H](CSc1ccccc1)Nc1ccc(S(=O)(=O)NC(=O)c2ccc(N3CCC([C@@H](O)c4ccccc4-c4ccc(Cl)cc4)CC3)cc2)cc1S(=O)(=O)C(F)(F)F [AZD4320] + Cc1cc2ncnn2cc1Nc1ncc2c(n1)n(C1CCOCC1)c(=O)n2C [AZD7648] (first compound max 1 µM, 7x7, partner max 10 µM)"
reported = -0.0389

[[record]]
molecule = "NC1(C(=O)N[C@@H](CCO)c2ccc(Cl)cc2)CCN(c2ncnc3[nH]ccc23)CC1 [Capivasertib] + CCN(CCO)CCCOc1ccc2c(Nc3cc(CC(=O)Nc4cccc(F)c4)[nH]n3)ncnc2c1 [AZD2811] (first compound max 10 µM, 7x7, partner max 1 µM)"
reported = -0.0074


Form field Bliss excess, entry CC1(C)CCC(CN2CCN(c3ccc(C(=O)NS(=O)(=O)c4ccc(NCC5CCOCC5)c([N+](=O)[O-])c4)c(Oc4cnc5[nH]ccc5c4)c3)CC2)=C(c2ccc(Cl)cc2)C1 [Venetoclax] + CN(C)CCCOc1ccc(-c2ccc3ncc4c(c3c2)n(C2CCOCC2)c(=O)n4C)cn1 [AZD0156] (first compound max 1 µM, 7x7, partner max 1 µM) : 0.0031
